Tested on: U2OS
Experiment: Incucyte cell viability with U2OS; further: unitless GR value; below 1 slowed growth and below 0 cell loss
Assay type: toxicity, cell-based
Details: human, 0 h, 10 µM, compound concentration 10 uM, replicate number 1
quantity name: Growth Rate
Answer field: number only, no words.

Need Growth Rate, item CSc1ccc(C(=O)/C=C/c2cc(C)c(OC(C)(C)C(=O)O)c(C)c2)cc1 [ELAFIBRANOR]
-0.15

Need Growth Rate, item "COc1cc2nc(-c3cc(F)ccc3O)nc(N[C@@H]3CNC[C@H]3C(C)(C)O)c2cc1OC.Cl.Cl"
-0.66

Need Growth Rate, item "COc1cc(/C=C(\C#N)C(=O)Nc2nnc(C(F)(F)F)s2)ccc1OCc1ccc(C(F)(F)F)cc1C(F)(F)F"
0.49

Need Growth Rate, item "COC[C@@H](CC(C)C)NC1=N/C(=C\c2ccc3ncsc3c2)C(=O)N1C"
0.04

Need Growth Rate, item "Cc1ccc(NC(=O)c2ccc3c(c2)OCCO3)cc1NC(=O)c1ccc2nc(OCCN3CCCC3)ccc2c1"
0.21

Need Growth Rate, item "O=C(Nc1snnc1C(=O)Nc1ccc(N2CCCC2)cc1)c1cncc(C(F)(F)F)c1"
-1

Need Growth Rate, item "COc1cc(NC(=O)c2ccc(-c3ccc(Cl)cc3)o2)cc(OC)c1"
0.66

Need Growth Rate, item Cc1nc2c([nH]1)c(=O)n(C)c(=O)n2Cc1ccco1 [FURAFYLLINE]
-0.64

Need Growth Rate, item "CN1CC(=O)N(C)c2cnc(Nc3ccc(NC(=O)Nc4cccc(C(=O)O)c4)cc3)nc21"
-0.94

Need Growth Rate, item "CN(C)[C@H]1C[C@H](n2cnc(-c3ccc(F)cn3)c2-c2ccnc3[nH]ccc23)C1"
0.83

Need Growth Rate, item "CC1CCN(C(=O)[C@H](CCn2cccc2C#N)NS(=O)(=O)c2cccc3[nH]ccc23)CC1"
0.73

Need Growth Rate, item "COCCNc1cc(NC(=O)N2CCCc3cc(CN4CCOCC4=O)c(C=O)nc32)ncc1C#N"
-0.03

Need Growth Rate, item "COc1cc2nc(C)nc(N[C@H](C)c3cc(N)cc(C(F)(F)F)c3)c2cc1O[C@H]1CCOC1"
0.75

Need Growth Rate, item "CC1(C)C(=O)N([C@H]2CCc3c(O)cccc32)c2nc(Nc3cccc(CN4CCCC4)c3)ncc21"
-0.88

Need Growth Rate, item "O=c1ccc2c(OCCCCOc3ccccc3)c3ccoc3cc2o1"
0.26

Need Growth Rate, item Oc1ccc(-c2nc(-c3ccncc3)c(-c3ccc(F)cc3)[nH]2)cc1 [SB-202190]
-0.88

Need Growth Rate, item "CN[C@@H](C)C(=O)N[C@H](C(=O)N1CCC[C@H]1C(=O)N[C@H]1c2ccccc2C[C@H]1OCC#CC#CCO[C@@H]1Cc2ccccc2[C@@H]1NC(=O)[C@@H]1CCCN1C(=O)[C@@H](NC(=O)[C@H](C)NC)C1CCCCC1)C1CCCCC1"
0.76

Need Growth Rate, item CCOC(=O)C1=C[C@]2(CC)CCCN3CCc4c(n1c1ccccc41)[C@@H]32 [VINPOCETINE]
-0.74
